Molecular target: Dihydrofolate reductase (Mycobacterium avium)
Assay: Antimycobacterial activity scale was evaluated and found to be highly active against MAC Dihydrofolate reductase
Parameter: IC50

Form: compound = "CCCOc1ccc(NCc2cnc3nc(N)nc(N)c3c2C)cc1OC" ; IC50 = < 0.01 µM

* * *

Molecular target: Dihydrofolate reductase (Mycobacterium avium, UniProt O30463)
Test: Antimycobacterial activity against Mycobacterium avium complex dihydrofolate reductase (MAC DHFR)
Task for the reader: assign each of the following compounds its reported pIC50.
Reminder that pIC50 means the negative base-10 logarithm of the concentration expressed in mol/L.

Form: compound = "Cc1c(CNc2cccc3ncccc23)cnc2nc(N)nc(N)c12" ; pIC50 = 9.01

Form: compound = "COCc1c(CNc2ccc(OC)c(OC)c2)cnc2nc(N)nc(N)c12" ; pIC50 = 5.92

Form: compound = "COc1ccc(OC)c(SCc2cnc3nc(N)nc(N)c3c2C)c1" ; pIC50 = 7.64

Form: compound = "COc1ccc(C(F)(F)F)cc1NCc1cnc2nc(N)nc(N)c2c1C" ; pIC50 = 9.18

Form: compound = "Cc1c(CN(C)c2cccc3c2CCCC3)cnc2nc(N)nc(N)c12" ; pIC50 = 8.72

Form: compound = "Cc1c(CNc2cc(F)ccc2F)cnc2nc(N)nc(N)c12" ; pIC50 = 9.05

Form: compound = "Cc1c(CNc2cnc3ccccc3c2)cnc2nc(N)nc(N)c12" ; pIC50 = 8.92

Form: compound = "COc1cc(SCc2cnc3nc(N)nc(N)c3c2C)cc(OC)c1OC" ; pIC50 = 8.35

Form: compound = "Cc1c(CNc2ccccc2Cl)cnc2nc(N)nc(N)c12" ; pIC50 = 9.04

Form: compound = "Nc1nc(N)c2cc(CNc3cccc4ccccc34)cnc2n1" ; pIC50 = 7.07

Form: compound = "Cc1cc(NCc2cnc3nc(N)nc(N)c3c2C)ccc1Br" ; pIC50 = 9.06

* * *

Target: UniProt P00374
Sequence (P00374 whole entry): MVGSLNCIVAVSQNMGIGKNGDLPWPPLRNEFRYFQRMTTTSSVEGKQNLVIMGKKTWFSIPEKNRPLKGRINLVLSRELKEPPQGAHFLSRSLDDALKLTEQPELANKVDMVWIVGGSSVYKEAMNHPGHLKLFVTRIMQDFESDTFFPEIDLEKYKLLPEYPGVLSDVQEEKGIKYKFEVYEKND
Assay: Antimycobacterial activity against Human dihydrofolatereductase (hDHFR)
Parameter: IC50 (nM)
Expressed in nM, but write only the number.

Test item "COc1cc(NCc2cnc3nc(N)nc(N)c3c2C)cc(OC)c1" ; UniProt P00374; reported IC50 was 15

* * *

Biological target: Dihydrofolate reductase (Mycobacterium avium, UniProt O30463)
Sequence (O30463 whole entry): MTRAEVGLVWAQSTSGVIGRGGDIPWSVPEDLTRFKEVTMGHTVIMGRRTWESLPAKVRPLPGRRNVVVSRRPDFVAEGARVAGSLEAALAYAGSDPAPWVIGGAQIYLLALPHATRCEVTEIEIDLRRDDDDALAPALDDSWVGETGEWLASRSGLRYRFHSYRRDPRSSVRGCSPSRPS
Experiment: Antimycobacterial activity against Mycobacterium avium complex dihydrofolate reductase (MAC DHFR)
Rule: IC50 below 1 nM gives Condition met. Equal to or above 1 nM gives Condition not met.

Asked: Does this compound meet the criterion IC50 < 1 nM? "Cc1ccc(F)c(NCc2cnc3nc(N)nc(N)c3c2C)c1"
Given back: Condition not met

Asked: Does this compound meet the criterion IC50 < 1 nM? "Cc1ccc(NCc2cnc3nc(N)nc(N)c3c2C)cc1Cl"
Given back: Condition met

Asked: Does this compound meet the criterion IC50 < 1 nM? "Cc1c(CNc2ccc3c(c2)Cc2ccccc2-3)cnc2nc(N)nc(N)c12"
Given back: Condition met

Asked: Does this compound meet the criterion IC50 < 1 nM? "COc1ccc(C(F)(F)F)cc1N(C)Cc1cnc2nc(N)nc(N)c2c1C"
Given back: Condition not met

Asked: Does this compound meet the criterion IC50 < 1 nM? "COc1ccc(OC)c(CCc2cnc3nc(N)nc(N)c3c2C)c1"
Given back: Condition not met

Asked: Does this compound meet the criterion IC50 < 1 nM? "Cc1c(CSc2cccc(Cl)c2)cnc2nc(N)nc(N)c12"
Given back: Condition not met

Asked: Does this compound meet the criterion IC50 < 1 nM? "COc1cc(CCc2cnc3nc(N)nc(N)c3c2C)cc(OC)c1"
Given back: Condition not met

Asked: Does this compound meet the criterion IC50 < 1 nM? "COCc1c(CNc2cc(OC)c(OC)c(OC)c2)cnc2nc(N)nc(N)c12"
Given back: Condition not met

Asked: Does this compound meet the criterion IC50 < 1 nM? "COc1cc(NCc2cnc3nc(N)nc(N)c3c2C)cc(OC)c1OC"
Given back: Condition met

Asked: Does this compound meet the criterion IC50 < 1 nM? "Cc1c(CNc2cccc3cnccc23)cnc2nc(N)nc(N)c12"
Given back: Condition met

Asked: Does this compound meet the criterion IC50 < 1 nM? "CCOc1ccc(OCC)c(N(C)Cc2cnc3nc(N)nc(N)c3c2C)c1"
Given back: Condition not met

Asked: Does this compound meet the criterion IC50 < 1 nM? "Cc1c(CNc2ccccc2OC(F)F)cnc2nc(N)nc(N)c12"
Given back: Condition met

Asked: Does this compound meet the criterion IC50 < 1 nM? "Cc1c(CNc2cccc(Cl)c2)cnc2nc(N)nc(N)c12"
Given back: Condition met

Asked: Does this compound meet the criterion IC50 < 1 nM? "COc1ccc(NCc2cnc3nc(N)nc(N)c3c2C)cc1F"
Given back: Condition met

Asked: Does this compound meet the criterion IC50 < 1 nM? "Cc1ccc(C)c(NCc2cnc3nc(N)nc(N)c3c2C)c1"
Given back: Condition met

Asked: Does this compound meet the criterion IC50 < 1 nM? "CCCOc1ccc(NCc2cnc3nc(N)nc(N)c3c2C)cc1OC"
Given back: Condition met

Asked: Does this compound meet the criterion IC50 < 1 nM? "CCc1c(CNc2cc(OC)ccc2OC)cnc2nc(N)nc(N)c12"
Given back: Condition not met

Asked: Does this compound meet the criterion IC50 < 1 nM? "Cc1cc(Br)cc(C)c1NCc1cnc2nc(N)nc(N)c2c1C"
Given back: Condition not met

Asked: Does this compound meet the criterion IC50 < 1 nM? "COc1cccc(SCc2cnc3nc(N)nc(N)c3c2C)c1"
Given back: Condition not met

Asked: Does this compound meet the criterion IC50 < 1 nM? "CCc1c(CNc2cc(C(F)(F)F)ccc2OC)cnc2nc(N)nc(N)c12"
Given back: Condition met

Ref: ChEMBL document CHEMBL1135401
